Tested on: U2OS
Assay: Incucyte cell viability with U2OS; also: unitless GR value; below 1 slowed growth and below 0 cell loss
Type: toxicity, cell-based
Conditions: human, 18 h, 10 µM, compound concentration 10 uM, replicate number 1
measure_name: Growth Rate

compound: Cl.NC(=O)c1ccccc1Nc1nc(-c2ccc(N3CCOCC3)cc2)cc2ncccc12
observed_result: 0.62
//
compound: CC(C(=O)Nc1cc(C#N)ccc1CCCC(=O)O)c1ccc(F)c2ccccc12 (stereo not given)
observed_result: 0.92
//
compound: Cc1cn([C@@H](C)CC#N)c(=O)c2cc(Cn3nc(C(F)F)cc3Cl)nn12
observed_result: 0.6
//
compound: O=C(Nc1ccnc(NC(=O)C2CC2)c1)c1c(Cl)cccc1Cl
observed_result: 0.81
//
compound: Cc1ccc(C)c(OCCCC(C)(C)C(=O)O[C@@H]2O[C@H](C(=O)O)[C@@H](O)[C@H](O)[C@H]2O)c1
observed_result: 0.89
//
compound: CC[C@@H](CO)Nc1nc(Nc2cccc(NC(=O)C(C)(C)C)c2)ncc1F
observed_result: 0.87
//
compound: COc1ccc(-n2c(C)c([N+](=O)[O-])c3ccc(O)cc32)cc1
observed_result: 0.88
//
compound: CC(C)(C)c1cc(NC(=O)c2csc(Nc3ccccn3)n2)no1
observed_result: 0.81
//
compound: COc1cc(CN(CCN)C(=O)N[C@@H](C)c2ccccc2)ccc1OCc1ccccc1.Cl
observed_result: 0.98
//
compound: Cc1cnc(Nc2ccc(C(=O)N3CCN(C)CC3)cc2)nc1N[C@@H]1CCC[C@@H]1C(N)=O
observed_result: 0.31

---

Tested on: U2OS
Experiment: Incucyte cell viability with U2OS; also: unitless GR value; below 1 slowed growth and below 0 cell loss
Type: toxicity, cell-based
Details: human, 6 h, 10 µM, compound concentration 10 uM, replicate number 2
Reported Growth Rate by item:
measure_name: Growth Rate

molecule: Cc1c(N2CCNCC2)nc2ccc(Br)cc2c1C(=O)NC[C@H](CCC(=O)O)c1ccccc1Cl [BAY-403]
measured_on: U2OS
observed_result: 0.52

molecule: CN(C(=O)c1cnn2cccnc12)c1cc2c(cc1N1CCOCC1)C(=O)N(C[C@@H](F)C(C)(C)O)C2
measured_on: U2OS
observed_result: 0.75

molecule: Fc1ccc(Cl)cc1-c1nc(Nc2ccncc2)c2nccnc2n1
measured_on: U2OS
observed_result: 0.55

molecule: O=C(Nc1ccc(Cl)c(-c2ccccn2)c1)c1cccc(COc2ccc(Br)cc2CNCCO)c1.O=CO
measured_on: U2OS
observed_result: 0.78

molecule: Clc1cccc(-n2nnnc2NCc2ccccc2Oc2ccccn2)c1Cl
measured_on: U2OS
observed_result: 0.99

---

Tested on: U2OS
Experiment: Incucyte cell viability with U2OS; also: unitless GR value; below 1 slowed growth and below 0 cell loss
Format: toxicity, cell-based
Details: human, 24 h, 10 µM, compound concentration 10 uM, replicate number 1
Recorded measurements of Growth Rate, one per entry

molecule: COCCOCn1c(S(C)(=O)=O)nc2c1c(=O)n(C)c(=O)n2C
Growth Rate: 0.76
--
molecule: Cc1cc(-c2cc3ncccc3c(OC[C@H]3CCCNC3)n2)ccc1N(C)C.O=C(O)C(F)(F)F
Growth Rate: 0.47
--
molecule: C[C@H](CCC(=O)O)[C@H]1CC[C@H]2[C@@H]3CC[C@@H]4C[C@H](O)CC[C@]4(C)[C@H]3CC[C@]12C
Growth Rate: 0.83
--
molecule: Cl.Cl.c1ccc2c(-c3cnn4cc(-c5ccc(N6CCNCC6)cc5)cnc34)ccnc2c1
Growth Rate: -0.32
--
molecule: COc1cc(-c2cc([C@H](O)C3CC3)n3ncnc(N)c23)ccc1CO
Growth Rate: 0.8
--
molecule: Cn1cc(NC(=O)c2ccc3nc4n(c3c2)CCCNC4=O)nc1C(=O)NC1CCCC1
Growth Rate: 0.91
--
molecule: CC/C(=C(\c1ccccc1)c1ccc(OCCN(C)C)cc1)c1ccccc1.O=C(O)CC(O)(CC(=O)O)C(=O)O [TAMOXIFEN CITRATE]
Growth Rate: 0.91
--
molecule: CN1CCN([C@H]2CC[C@@H](n3cc(-c4ccc(Oc5ccccc5)cc4)c4c(N)ncnc43)CC2)CC1
Growth Rate: -0.17
--
molecule: CCN(C(=O)CO)[C@H]1CN(/C(=N\C#N)Nc2cccc(OC(F)F)c2)N=C1c1ccc(Cl)c(Cl)c1
Growth Rate: -0.49
--
molecule: CC(C)c1cnn2c(NCc3ccccc3)cc(NCCCCCCN)nc12.Cl
Growth Rate: 0.87
--
molecule: O=S(=O)(Nc1nncs1)c1cc(Cl)c(Oc2ccc(C(F)(F)F)cc2-c2ccnn2C2CNC2)cc1F
Growth Rate: 0.86
--
molecule: Cc1cc(OC2CCS(=O)(=O)CC2)cc(C)c1-c1cccc(COc2ccc(C(=O)O)c(F)c2)c1
Growth Rate: 0.98
--
molecule: Cc1cn([C@H](C)CC#N)c(=O)c2cc(Cn3nc(C(F)F)cc3Cl)nn12
Growth Rate: 0.64
--
molecule: NC(=O)c1cc(-c2ccnc(NC3CCCCC3)c2)nc(N2CCNCC2)c1
Growth Rate: 0.61
--
molecule: COc1cccc(-c2c(C)c(Cc3c(F)cccc3C(F)(F)F)c3n(c2=O)[C@@H]([C@@H](N)c2ccccc2)CS3)c1F
Growth Rate: 0.37
--
molecule: CCCCC[C@H](O)/C=C/[C@H]1[C@H](O)CC(=O)[C@@H]1CCCCCCC(=O)O
Growth Rate: 0.93
--
molecule: CC1(C)C[C@@H]1C(=O)N/C(=C\CCCCSC[C@H](N)C(=O)O)C(=O)O
Growth Rate: 0.9
--
molecule: COc1ccccc1N1CCN(c2ncnc3c2cnn3-c2ccccc2)CC1
Growth Rate: 0.25
